# Subject Of Test: T1, BSA (bovine, UniProt P02769)
# T1 construct: coated at 3 µg/ml; also called bovine serum albumin, control antigen of the DELFIA ELISA
# Test Details: DELFIA ELISA, coated antigen;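 also: binding of antibody supernatants or protein-A purified antibodies to plate-coated antigen (3 µg/ml recombinant TCR or BSA), 1 h incubation at room temperature, DELFIA readout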
Readout: binding result

{"Binder": "G4_16 (antibody, human IgG1, V domains shown, also called 1248_P02_D10; clone G4_16) VH: EVQLLESGAEVKKPGASVKVSCKASGYTFTSYGISWVRQAPGQGLEWMGWISAYNGNTNYAQKLQGRVTMTTDTSTSTAYMELRSLRSDDTAVYYCARDYGDFYGMDVWGQGTLVTVSS VL: SQSVLTQPPSASGSPGQSVTFSCTGTSSDIGAFNSVSWYQQHPGKAPKLLIYEITKRPSGVPDRFSGSKSGNTASLTISVLQAEDEADYYCTSYAGSNTLIFGGGTKVTVLG", "binding result": "no binding"}
{"Binder": "G4_12 (antibody, human IgG1, V domains shown, also called 1140_P01_G08; clone G4_12) VH: EVQLLESGGGLVQPGGSLRLSCAASGFTVSSNYMSWVRQAPGKGLEWVSVIYSGGSTYYADSVKGRFTISRHNSKNTLYLQMNSLRAEDTAVYYCARVANGDFLDYWGRGTLVTVSS VL: SQSVLTQPASVSGSPGQSITISCTGTSSDVGGYNFVSWYQQHPGKAPKLMIYEVTNRPSGVPDRFSGSKSGNTASLTISGLQAEDEADYYCSSHASPRVFGTGTKVTVLG", "binding result": "no binding"}
{"Binder": "G4_13 (antibody, human IgG1, V domains shown, also called clone G4_13) VH: QVQLVESGAEVKKPGGSLRLSCAASGFTFSSYSMNWVRQAPGKGLEWVSSISGTSSYIYYADSVKGRFTISRDNAKNSLYLQMSSLRAEDTAVYYCARGGLGMVDPWGQGTLVTVSS VL: SNFMLTQPHSVSESPGKTVTISCTRSSGSIASNYVQWYQQRPGSSPSTVIYEDNQRPSGVPDRFSGSIDSSSNSASLTISGLRTEDEADYYCQSYDSSIYVVFGGGTKLTVLG", "binding result": "no binding"}
{"Binder": "G4_18 (antibody, human IgG1, V domains shown, also called 1254_P01_H04; clone G4_18) VH: EVQLVESGAEVKKPGASVKVSCKASGYTFTGYYMHWVRQAPGQGLEWMGRINPNSGGTNYAQKFQGRVTMTRDASISTAYMELSRLRSDDTAVYYCARDLDLSSLDYWGRGTLVTVSS VL: SSYELTQPPSVTESPGQTARITCSGDALAKQYAYWYQQKPGQAPVLVIYRDSERPSEIPERFSGSSSGTTVTLTISGVQAEDEADYYCQSADSSGTYTVFGGGTKLTVLG", "binding result": "no binding"}
{"Binder": "G4_1 (antibody, human IgG1, V domains shown, also called clone G4_1) VH: EVQLLESGGGVVQPGRPLRLSCAASGFTFSSYSMNWVRQAPGKGLEWVSSISSSSSYIYYADSVKGRFTISRDNSKNTLYLQMNSLRAEDTAVYYCAKGHWYFDLWGRGTLVTVSS VL: DIQMTQSPSSLSASVGDRVTITCQASQDISNYLNWYQQKPGKAPKLLIYDASNLETGVPSRFSGSGSGTDFTLTISSLQPEDFATYYCQQSYSTPVTFGPGTKVEIKR", "binding result": "no binding"}

QUERY: Return binding result for the following binder: G4_14 (antibody, human IgG1, V domains shown, also called clone G4_14) VH: EVQLVQSGAEVKKPGESLRISCKGSGYSFTSYWISWVRQMPGKGLEWMGRIDPSDSYTNYSPSFPGHVTISADKSISTAYLQWSSLKASDTAMYYCAADTAHGMDVWGRGTLVTVSS VL: SNFMLTQPHSVSESPGKTVTISCTRSRGSIAGNYVHWYQQRPGRAPTTVIYRDKERPSGVPDRISGSIDSSSNSASLTISGLKTEDEADYYCQSYDSSTHVVFGGGTKLTVLG
RESULT: no binding

QUERY: Return binding result for the following binder: G4_28 (antibody, human IgG1, V domains shown, also called clone G4_28) VH: QVQLVESGGGLVQPGGSLRLSCAASGFTFDDYAMHWVRQAPGKGLEWVSGISAGGGSTNYAGSVKGRFTVSRDTSKNTLYLQMNSLRAEDTAVYYCVKSYVDTAMRYYYYYMDVWGQGTMVTVSS VL: SSYELTQDPAVSVALGQTVTITCQGDSLRNYYASWYRQKPGQTPVLVVYGKNNRPSGIPDRFSVSASGNTASLTITGAQAEDEGDYYCNSRDSSGVVFGGGTKVTVLG
RESULT: no binding

QUERY: Return binding result for the following binder: G4_2 (antibody, human IgG1, V domains shown, also called clone G4_2) VH: QMQLVQSGAEVKKPGATVKISCKVSGYPFTDYYIHWVQQAPGKGLEWMGLVDPEDGQSRSAERFQGRVTITADTSTDTAYMELSSLRSEDTAVYYCATFPVAGFYGMDVWGQGTLVTVSS VL: DIQMTQSPSSLSASVGDRVTITCQASQDISNYLNWYQQKPGKAPKLLIYAASSLQSGVPSRFSGSGSGTDFTLTISGLQPEDFATYYCLEDYNYLWTFGQGTKLEIKR
RESULT: no binding

QUERY: Return binding result for the following binder: G4_25 (antibody, human IgG1, V domains shown, also called clone G4_25) VH: EVQLVESGAEVKKPGSSVKVSCKASGGTFSSYAISWVRQAPGQGLEWMGGIIPIFGTANYAQKFQGRVTITADKSTSTAYMELSSLRSEDTAVYYCARSLRDGYNYIGSLGYWGQGTLVTVSS VL: SQSALTQPRSVSGSPGQSVTISCTGTSSDVGGYNYVSWYQQHPGKAPKLMIYEVSNRPSGVSNRFSGSKSGNTASLTISGLQAEDEADYYCSSYGSGSVFGTGTKLTVLG
RESULT: no binding

QUERY: Return binding result for the following binder: G4_3 (antibody, human IgG1, V domains shown, also called 1139_P01_A04; G4_03) VH: EVQLVESGGGLVQPGGSLRLSCAASGFTFSSYSMNWVRQAPGKGLEWVSSISSSSSYIYYADSVKGRFTISRDNSKNTLYLQMNSLRAEDTAVYYCARGGWLYDYWGQGTLVTVSS VL: DIQMTQSPSSLSASVGDRVTITCQASQDISNYLNWYQQKPGKAPKLLIYDASNLETGVPSRFSGSGSGTDFTLTISSLQPEDFATYFCQQSYSTPQTFGQGTKVDIKR
RESULT: no binding

QUERY: Return binding result for the following binder: G4_20 (antibody, human IgG1, V domains shown, also called 1254_P02_G02; clone G4_20) VH: QVQLVESGAEVKKPGASVKVSCKASGGTFSSYAISWVRQAPGQGLEWMGGIIPIFGTANYAQKFQGRVTITVDKSTRTAYMELSSLRSKDTAVYYCARGNSRSDAFDIWGQGTMVTVSS VL: SSYELTHPPSVSVSPGQTASITCSGDKLGDKFVSWYHQKPGQSPVLVIYQDSKRPSGIPERFSGSNSGNTATLTISGTRAMDEADYYCQAWDSSTVVFGGGTKLTVLG
RESULT: no binding

These measurements were taken from patent US20230090901A1.
